assay target: Human Polymorphonuclear Leukocyte Elastase (Homo sapiens, UniProt P08246)
Sequence (P08246 30-267): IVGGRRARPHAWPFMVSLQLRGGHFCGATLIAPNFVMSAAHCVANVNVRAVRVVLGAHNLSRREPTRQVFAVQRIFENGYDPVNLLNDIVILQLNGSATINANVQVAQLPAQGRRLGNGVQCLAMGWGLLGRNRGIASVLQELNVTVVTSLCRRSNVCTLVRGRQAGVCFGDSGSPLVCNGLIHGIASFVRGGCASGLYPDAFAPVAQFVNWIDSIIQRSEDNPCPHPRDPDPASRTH
assay summary: Inhibition of human polymorphonuclear leukocyte elastase via hydrolysis of Boc-AAPAN or Boc-AAPVN
Format: biochemical
condition set: pH 7.5, Table II; second order rate constant for inactivation of the enzyme; read-out: Kobs /[I]
Protocol: Enzyme Assays for the Inhibition of Human Polymorphonuclear Leukocyte Elastase Via Hydrolysis of N-t-Boc-alanyl-alanyl-prolylalanine-p-nitroanilide (Boc-AAPAN) or […] (Boc-AAPVN) Reagent: […] To 1.0 ml of 0.2 mM Boc-AAPAN in a cuvette, 0.01-0.1 ml of DMSO with or without inhibitor was added. […] 0.05 Milliliters of PMN extract was then added and the ΔOD/min at 410 mμ was measured and recorded. […]
measured parameter: kinact/KI (M⁻¹ s⁻¹)

Example cases with answers are listed next.
[
  {
    "compound": "CCC[C@@H](NC(=O)N1C(=O)C(CC)(CC)[C@@H]1Oc1ccc(CCN(C)C)cc1)c1ccc(C)cc1 [R4=Me; R5=Me; n=2]",
    "assay target": "Human Polymorphonuclear Leukocyte Elastase (Homo sapiens, UniProt P08246)",
    "quantitative readout": "1.13e+06"
  },
  {
    "compound": "CCC[C@@H](NC(=O)N1C(=O)C(CC)(CC)[C@@H]1Oc1ccc(CCN(C)CCN(C)C)cc1)c1ccc(C)cc1 [R4=Me; R5=CH2 CH2 NMe2; n=2]",
    "assay target": "Human Polymorphonuclear Leukocyte Elastase (Homo sapiens, UniProt P08246)",
    "quantitative readout": "1.2e+06"
  },
  {
    "compound": "CCC[C@@H](NC(=O)N1C(=O)C(CC)(CC)[C@@H]1Oc1ccc(CCCCN(C)C)cc1)c1ccc(C)cc1 [R4=Me; R5=Me; n=4]",
    "assay target": "Human Polymorphonuclear Leukocyte Elastase (Homo sapiens, UniProt P08246)",
    "quantitative readout": 525000
  },
  {
    "compound": "CCC[C@@H](NC(=O)N1C(=O)C(CC)(CC)[C@@H]1Oc1ccc(CCN2CCOCC2)cc1)c1ccc(C)cc1 [R4+R5=--CH2 CH2 OCH2 CH2 --; n=2]",
    "assay target": "Human Polymorphonuclear Leukocyte Elastase (Homo sapiens, UniProt P08246)",
    "quantitative readout": 600000
  },
  {
    "compound": "CCC[C@@H](NC(=O)N1C(=O)C(CC)(CC)[C@@H]1Oc1ccc(CCCCN(C)Cc2ccccc2)cc1)c1ccc(C)cc1 [R4=Me; R5=Bn; n=4]",
    "assay target": "Human Polymorphonuclear Leukocyte Elastase (Homo sapiens, UniProt P08246)",
    "quantitative readout": 640000
  }
]

(I) CCC[C@@H](NC(=O)N1C(=O)C(CC)(CC)[C@@H]1Oc1ccc(CCN(C)Cc2ccccc2)cc1)c1ccc(C)cc1 [R4=Me; R5=Bn; n=2]
(II) CCC[C@@H](NC(=O)N1C(=O)C(CC)(CC)[C@@H]1Oc1ccc(CCCN(CC)CC)cc1)c1ccc(C)cc1 [R4=Et; R5=Et; n=3]
Of I and II , which carries the smaller reported kinact/KI figure? Answer with the label corresponding to your selection.
II
(II: 540000 M⁻¹ s⁻¹, I: 1.32e+06 M⁻¹ s⁻¹)
